Target: T1, Human BCMA (human, UniProt Q02223 1-54, limits assumed)
T1 construct: Soluble analyte in SPR; construct not described; also called huBCMA; B-cell maturation antigen
T1 sequence (looked up): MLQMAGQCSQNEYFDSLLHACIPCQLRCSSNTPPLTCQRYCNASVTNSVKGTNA
Assay: SPR, IgG immobilised, 37 C
observation.type: koff (s⁻¹)
Answer with a number only, understood to be in s⁻¹.

Sample answers from the record:
L3.PY/L1.AH/H3.YA (antibody, V domains shown, IgG) VH: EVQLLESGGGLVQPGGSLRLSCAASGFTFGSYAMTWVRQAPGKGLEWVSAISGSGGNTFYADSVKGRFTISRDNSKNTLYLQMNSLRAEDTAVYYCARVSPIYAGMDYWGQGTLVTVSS VL: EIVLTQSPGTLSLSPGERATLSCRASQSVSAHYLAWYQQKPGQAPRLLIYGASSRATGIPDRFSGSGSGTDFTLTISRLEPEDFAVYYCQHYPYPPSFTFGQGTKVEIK : 0.0015
L3.PY/L1.AH/H2.YQ (antibody, V domains shown, IgG) VH: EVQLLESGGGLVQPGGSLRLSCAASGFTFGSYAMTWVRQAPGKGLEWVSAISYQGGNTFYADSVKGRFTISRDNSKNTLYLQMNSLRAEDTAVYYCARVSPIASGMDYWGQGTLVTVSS VL: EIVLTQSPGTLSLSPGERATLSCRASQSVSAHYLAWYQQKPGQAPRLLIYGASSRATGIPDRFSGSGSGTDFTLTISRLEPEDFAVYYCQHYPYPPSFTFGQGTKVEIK : 0.00193
L3.PY/H3.AE (antibody, V domains shown, IgG) VH: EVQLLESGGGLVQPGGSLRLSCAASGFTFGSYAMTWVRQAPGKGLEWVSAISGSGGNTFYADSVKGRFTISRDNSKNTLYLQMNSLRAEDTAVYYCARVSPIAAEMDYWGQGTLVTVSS VL: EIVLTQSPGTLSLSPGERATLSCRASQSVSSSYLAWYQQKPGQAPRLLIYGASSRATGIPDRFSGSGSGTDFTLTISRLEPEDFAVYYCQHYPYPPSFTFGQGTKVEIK : 0.00139
L3.PY/H2.QR (antibody, V domains shown, IgG) VH: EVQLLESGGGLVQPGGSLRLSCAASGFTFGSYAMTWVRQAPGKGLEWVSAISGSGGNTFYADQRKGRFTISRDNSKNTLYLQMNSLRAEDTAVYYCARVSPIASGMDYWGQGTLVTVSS VL: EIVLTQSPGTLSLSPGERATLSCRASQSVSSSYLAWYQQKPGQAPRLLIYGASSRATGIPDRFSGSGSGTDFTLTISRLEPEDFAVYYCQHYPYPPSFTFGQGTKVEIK : 0.00119

Kindly consider the entry below.
Retrieve koff measured for L3.PY/L1.PS/H2.YQ (antibody, V domains shown, IgG) VH: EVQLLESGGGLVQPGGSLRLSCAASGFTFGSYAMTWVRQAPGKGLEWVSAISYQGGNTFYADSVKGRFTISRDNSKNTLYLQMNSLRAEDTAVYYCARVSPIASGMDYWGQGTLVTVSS VL: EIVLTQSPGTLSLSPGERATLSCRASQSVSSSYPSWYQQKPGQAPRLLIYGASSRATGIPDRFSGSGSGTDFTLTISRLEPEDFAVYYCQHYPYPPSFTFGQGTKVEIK and print it.
0.0043

Reference for the values: patent US20160297884A1
